# target: M2 (Homo sapiens, UniProt P08172)
# Sequence (P08172 whole entry): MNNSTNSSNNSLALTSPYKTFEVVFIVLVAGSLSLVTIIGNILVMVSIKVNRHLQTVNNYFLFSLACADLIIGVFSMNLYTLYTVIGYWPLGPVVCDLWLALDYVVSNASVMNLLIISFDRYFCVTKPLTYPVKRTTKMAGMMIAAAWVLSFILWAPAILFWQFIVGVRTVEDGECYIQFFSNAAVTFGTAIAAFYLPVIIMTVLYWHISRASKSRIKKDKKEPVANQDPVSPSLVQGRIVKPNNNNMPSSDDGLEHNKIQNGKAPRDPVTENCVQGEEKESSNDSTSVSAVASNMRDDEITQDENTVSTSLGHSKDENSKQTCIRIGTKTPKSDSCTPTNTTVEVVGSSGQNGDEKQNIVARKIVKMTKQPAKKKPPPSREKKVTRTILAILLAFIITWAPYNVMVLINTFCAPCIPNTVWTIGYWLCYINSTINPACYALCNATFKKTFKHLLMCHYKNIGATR
# assay-summary: PDSP radioligand binding assay
# measurement-context: Table 5
metric: Ki

-- ask # value lookup — system M2 (Homo sapiens, UniProt P08172), readout Ki, item `COc1ccc(N2CCN(CCCNC(=O)Cn3c(=O)c4cccn4c4c(C)ccnc43)CC2)cc1`
-- reply > 10 µM

###

# target: KOR (Homo sapiens)
# assay-summary: High content imaging based β-arrestin translocation assay, KOR agonist (KOR HCS)
# Format: cell-based
# measurement-context: n = 2, read-out: Average Potency KOR HCS
Please note: EC50 exactly at 4 µM is FALSE. Only values below 4 µM get TRUE.

-- ask EC50 under 4 µM? Item: `FC(F)(F)c1cc(CSc2nnc(-c3ccccn3)n2Cc2ccco2)ccc1Cl`
-- reply TRUE

-- ask And for `COc1ccc(CSc2nnc(-c3ccccn3)n2Cc2ccco2)cc1` ?
-- reply FALSE

-- ask Ok, now `N#Cc1ccc(CSc2nnc(-c3ccccn3)n2Cc2cccs2)cc1`
-- reply TRUE

-- ask // query: `O=[N+]([O-])c1ccc(CSc2nnc(-c3ccccn3)n2Cc2cccs2)cc1`
-- reply TRUE

###

# target: D4 (Homo sapiens)
# Sequence (P21917 1-419): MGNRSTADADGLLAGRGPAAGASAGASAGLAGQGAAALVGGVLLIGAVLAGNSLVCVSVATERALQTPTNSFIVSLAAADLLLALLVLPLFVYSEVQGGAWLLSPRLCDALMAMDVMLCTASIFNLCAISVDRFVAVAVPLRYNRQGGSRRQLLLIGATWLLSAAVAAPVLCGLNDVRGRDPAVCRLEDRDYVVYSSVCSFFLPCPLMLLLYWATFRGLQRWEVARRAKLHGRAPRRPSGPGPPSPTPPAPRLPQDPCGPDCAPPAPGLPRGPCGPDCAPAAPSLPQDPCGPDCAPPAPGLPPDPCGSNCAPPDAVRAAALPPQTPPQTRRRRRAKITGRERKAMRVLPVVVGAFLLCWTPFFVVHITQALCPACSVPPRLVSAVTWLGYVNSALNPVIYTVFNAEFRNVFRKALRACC
# assay-summary: PDSP radioligand binding assay
# measurement-context: Table 5
metric: Ki

-- ask Quick one: Ki for COc1ccc(N2CCN(CCCNC(=O)Cn3c(=O)c4cccn4c4c(C)ccnc43)CC2)cc1 [Compound 1{3}] ?
-- reply > 10 µM

###

# target: 5ht1e (Homo sapiens)
# Sequence (P28566 whole entry, species assumed): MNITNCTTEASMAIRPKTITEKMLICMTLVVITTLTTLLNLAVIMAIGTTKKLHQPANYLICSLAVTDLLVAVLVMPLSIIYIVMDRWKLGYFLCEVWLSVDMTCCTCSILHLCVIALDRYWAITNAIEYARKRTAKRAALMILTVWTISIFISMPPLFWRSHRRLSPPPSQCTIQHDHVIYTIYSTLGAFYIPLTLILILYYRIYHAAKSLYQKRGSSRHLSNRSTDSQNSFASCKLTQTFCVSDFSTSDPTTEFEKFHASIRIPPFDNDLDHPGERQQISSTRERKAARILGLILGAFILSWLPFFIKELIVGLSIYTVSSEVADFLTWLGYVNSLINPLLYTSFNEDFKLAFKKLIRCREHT
# assay-summary: PDSP radioligand binding assay
# measurement-context: Table 5
pKi: −log10 of the molar value.
metric: pKi

-- ask Please tell me: pKi of COc1ccc(N2CCN(CCCNC(=O)Cn3c(=O)c4cccn4c4c(C)ccnc43)CC2)cc1 [Compound 1{3}] , system 5ht1e (Homo sapiens)?
-- reply < 5.00

###

For each of the compounds below, state its pEC50.
# target: KOR (Homo sapiens, UniProt P41145)
# Sequence (P41145 whole entry): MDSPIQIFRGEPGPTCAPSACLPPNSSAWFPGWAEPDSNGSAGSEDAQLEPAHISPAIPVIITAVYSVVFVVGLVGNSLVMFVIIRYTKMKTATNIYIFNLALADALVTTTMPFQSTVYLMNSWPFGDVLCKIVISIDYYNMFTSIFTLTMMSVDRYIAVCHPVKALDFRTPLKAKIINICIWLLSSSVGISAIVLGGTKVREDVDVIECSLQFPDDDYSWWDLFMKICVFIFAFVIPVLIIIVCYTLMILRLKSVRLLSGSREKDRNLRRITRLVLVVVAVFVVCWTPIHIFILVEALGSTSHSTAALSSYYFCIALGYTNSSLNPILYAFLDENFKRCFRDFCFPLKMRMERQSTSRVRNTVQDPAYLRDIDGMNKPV
# assay-summary: High content imaging based β-arrestin translocation assay, KOR agonist (KOR HCS)
# Assay type: cell-based
# measurement-context: n = 2, read-out: Average Potency KOR HCS
# Description: In this campaign, two assay platforms were employed to evaluate KOR activity and selectivity: the KOR1 DISCOVERX β-Arrestin […] assay and an imaging based β-arrestin translocation assay for confirmatory and selectivity assays. The KOR1 DISCOVERX β-Arrestin […] assay is a commercial platform for direct measurement of GPCR (G protein-coupled receptor) activation by detection of β-Arrestin binding to the KOR. […]
Conceptually, pEC50 converts a concentration in mol/L into minus its log10.

-- ask So what does the record say about pEC50 for `Cc1ccccc1CSc1nnc(-c2ccccn2)n1Cc1cccs1` ?
-- reply 4.84

-- ask How about this compound: `Fc1cc(F)cc(CSc2nnc(-c3ccccn3)n2Cc2ccco2)c1`
-- reply 4.68

-- ask Same for `Cc1ccc(CSc2nnc(-c3ccccn3)n2Cc2ccco2)cc1`
-- reply 5.28

-- ask And `Cc1c(CSc2nnc(-c3ccccn3)n2Cc2ccco2)cccc1[N+](=O)[O-]` ?
-- reply 4.92

# credit: patent US9345703B2
